B1: Ventral anterior homeobox 1, residues 102 to 157; numbered along this chain, Q5SQQ9 (parent)
chain: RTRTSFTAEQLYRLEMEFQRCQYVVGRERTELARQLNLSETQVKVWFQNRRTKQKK

Variants of: B1
Experiment: abundance fitness (aPCA) (normalised: wild type 0, dead -1); higher = more abundant; growth selection in yeast, the domain comes from the species named
Conditions: Homo sapiens
Use label 1 when the recorded abundance fitness is no lower than -0.1; use label 0 when it is lower.

mutation key	category
Q35R	label 1
S39I	label 0
G26P	label 0
T4P	label 1
E31W	label 0
M16Q	label 1
E40H	label 0
M16R	label 0
Q42A	label 1
R27Y	label 0
N37L	label 0
T7I	label 0
R34M	label 0
T2R	label 0
K53W	label 1
E40Y	label 0
S39N	label 1
E9W	label 0
T52W	label 0
Q22G	label 1
L11K	label 0
T7E	label 0
Q54G	label 1
Y23D	label 0
K55Q	label 1
L36D	label 0
K44G	label 1
E9S	label 0
S5K	label 0
N49H	label 0
C21W	label 0
Q54V	label 1
S39F	label 0
E40W	label 0
V43C	label 0
Q35W	label 0
T52Y	label 0
R34P	label 0
R3Q	label 1
